Every entry's value here was drawn from patent US7470684B2.

molecular target: human NK3 receptor (Homo sapiens, UniProt P29371); construct: expressed in transfected cells; host or cells: HEK293 cells, transiently transfected; membranes; experiment: [3H]SR142801 competition binding assay; details: hNK3 Ki, [3H]SR142801 displacement, membranes of HEK293 cells transiently expressing recombinant human NK3 receptor
Sequence (P29371 whole entry): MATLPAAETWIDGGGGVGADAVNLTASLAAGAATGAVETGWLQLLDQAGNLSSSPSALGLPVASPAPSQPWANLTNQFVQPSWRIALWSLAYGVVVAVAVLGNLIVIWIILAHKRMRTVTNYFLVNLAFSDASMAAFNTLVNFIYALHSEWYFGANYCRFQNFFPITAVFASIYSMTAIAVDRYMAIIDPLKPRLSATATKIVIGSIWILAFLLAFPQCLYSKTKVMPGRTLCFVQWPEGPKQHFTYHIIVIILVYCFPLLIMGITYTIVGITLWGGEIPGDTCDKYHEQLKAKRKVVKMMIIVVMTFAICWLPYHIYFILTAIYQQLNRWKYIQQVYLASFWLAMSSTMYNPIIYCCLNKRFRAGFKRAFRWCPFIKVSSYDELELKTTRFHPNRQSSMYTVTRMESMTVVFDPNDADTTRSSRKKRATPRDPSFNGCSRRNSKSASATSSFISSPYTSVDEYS
log10 Ki listing for selected molecules.
Response schema: value (number) is log10 of Ki in units of µM.

What value of log10 Ki has been reported for the following molecule? O=C1Nc2ccc(F)cc2C2(CCN(CCC(C(=O)NCc3cccc(C(F)(F)F)c3)c3ccc(Cl)c(Cl)c3)CC2)O1 (stereo not drawn)
-1.89

Which value of log10 Ki has been reported for COc1ccc(CNC(=O)C(CCN2CCC3(CC2)OC(=O)Nc2ccc(F)cc23)c2ccc(Cl)c(Cl)c2)cc1 (stereo not drawn) in the records?
-1.71

Fill in the blank: the reported log10 Ki of CN(Cc1ccc(F)cc1)C(=O)C(CCN1CCC2(CC1)OC(=O)N(C)c1ccc(F)cc12)c1ccc(Cl)c(Cl)c1 (stereo not drawn) is ____.
-3.00

What does the record list as log10 Ki for CN(Cc1ccccc1Cl)C(=O)C(CCN1CCC2(CC1)OC(=O)Nc1ccc(F)cc12)c1ccc(Cl)c(Cl)c1 (stereo not drawn) ?
-2.17

Look up log10 Ki: CN(Cc1cccc(F)c1)C(=O)C(CCN1CCC2(CC1)OC(=O)N(C)c1ccc(F)cc12)c1ccc(Cl)c(Cl)c1 (stereo not drawn)
-2.89

Reported log10 Ki, molecule CN1C(=O)OC2(CCN(CCC(C(=O)NCc3cccc(C(F)(F)F)c3)c3ccc(Cl)c(Cl)c3)CC2)c2cc(F)ccc21 (stereo not drawn) : ____
-2.52

Could you tell me which log10 Ki is on file for O=C1Nc2ccc(F)cc2C2(CCN(CCC(C(=O)NCc3ccccc3OC(F)(F)F)c3ccc(F)cc3)CC2)O1 (stereo not drawn) ?
-1.04

Give its log10 Ki value. Item: CN1C(=O)OC2(CCN(CCC(C(=O)NCc3cccc(OC(F)(F)F)c3)c3ccc(Cl)c(Cl)c3)CC2)c2cc(F)ccc21 (stereo not drawn)
-2.43

Recorded log10 Ki of CN(Cc1cccc(C(F)(F)F)c1)C(=O)C(CCN1CCC2(CC1)OC(=O)Nc1ccc(F)cc12)c1ccc(F)cc1 (stereo not drawn) , please.
-1.02

Need log10 Ki, item CN(Cc1cccc(F)c1)C(=O)C(CCN1CCC2(CC1)OC(=O)Nc1ccc(F)cc12)c1ccc(Cl)c(Cl)c1 (stereo not drawn)
-2.34

Query: log10 Ki; subject: O=C1Nc2ccc(F)cc2C2(CCN(CCC(C(=O)NCc3ccc(F)cc3)c3ccc(Cl)c(Cl)c3)CC2)O1 (stereo not drawn)
-1.94

Could you tell me which log10 Ki is on file for CN(Cc1ccccc1)C(=O)C(CCN1CCC2(CC1)OC(=O)Nc1ccc(F)cc12)c1ccc(Cl)c(Cl)c1 (stereo not drawn) [Example 64] ?
-1.90

----------
target: human NK3 receptor (Homo sapiens, UniProt P29371); construct: expressed in transfected cells; host or cells: HEK293 cells, transiently transfected; membranes; experiment: [3H]SR142801 competition binding assay; details: [3H]SR142801 displacement, membranes of HEK293 cells transiently expressing recombinant human NK3 receptor; read-out: hNK3 Ki
pKi: −log10 of the molar value.
Note to self: values exactly at 8 are met. So pKi at or above 8 is met, below is not met.

Please review the following examples before continuing.
- compound: "Cc1ccc(CNC(=O)C(CCN2CCC3(CC2)OC(=O)Nc2ccc(F)cc23)c2ccc(Cl)c(Cl)c2)o1 (stereo not shown)"
  assayedSystem: "human NK3 receptor (Homo sapiens, UniProt P29371)"
  answerLabel: "not met"
- compound: "CN(CCc1ccccc1)C(=O)C(CCN1CCC2(CC1)OC(=O)Nc1ccc(F)cc12)c1ccc(Cl)c(Cl)c1 (stereo not shown)"
  assayedSystem: "human NK3 receptor (Homo sapiens, UniProt P29371)"
  answerLabel: "not met"

API: the following record is the query input.
Test whether the compound `CN(Cc1ccc(Cl)cc1)C(=O)[C@@H](CCN1CCC2(CC1)OC(=O)N(C)c1ccc(F)cc12)c1ccc(Cl)c(Cl)c1` records pKi of 8 or higher.
met
